tested on: biomarker (antibody) in serum samples from patients with symptoms of tuberculosis; type: binding, human; conditions: serum sample 47 TB−
resultType: ELISA absorbance at 492 nm
API doc: respond with a numeric literal and nothing else, no unit.

CCCCCCCCCCCCCCCCCCCCCCCC[C@@H](C(=O)OC[C@H]1O[C@H](OC)[C@@H](O)[C@@H]1O)[C@H](O)CCCCCCCCCCCCCCCCC[C@@H]1C[C@@H]1CCCCCCCCCCCCCCCC[C@@H](OC)[C@@H](C)CCCCCCCCCCCCCCCCCC [Antigen B] : 0.35

Exam item: Suppose we examine the compound CCCCCCCCCCCCCCCCCCCCCCCC[C@@H](C(=O)OC[C@H]1O[C@H](OC)[C@@H](O)[C@@H]1O)[C@H](O)CCCCCCCCCCC[C@H]1CC1CCCCCCCCCCCCCC[C@H]1C[C@H]1CCCCCCCCCCCCCCCCCCCC (some centres unmarked) [Antigen F] ; what ELISA absorbance at 492 nm value has been reported?
Marked response: 0.56
